test target: hCNT3 (Homo sapiens, UniProt Q9HAS3)
Sequence (Q9HAS3 whole entry): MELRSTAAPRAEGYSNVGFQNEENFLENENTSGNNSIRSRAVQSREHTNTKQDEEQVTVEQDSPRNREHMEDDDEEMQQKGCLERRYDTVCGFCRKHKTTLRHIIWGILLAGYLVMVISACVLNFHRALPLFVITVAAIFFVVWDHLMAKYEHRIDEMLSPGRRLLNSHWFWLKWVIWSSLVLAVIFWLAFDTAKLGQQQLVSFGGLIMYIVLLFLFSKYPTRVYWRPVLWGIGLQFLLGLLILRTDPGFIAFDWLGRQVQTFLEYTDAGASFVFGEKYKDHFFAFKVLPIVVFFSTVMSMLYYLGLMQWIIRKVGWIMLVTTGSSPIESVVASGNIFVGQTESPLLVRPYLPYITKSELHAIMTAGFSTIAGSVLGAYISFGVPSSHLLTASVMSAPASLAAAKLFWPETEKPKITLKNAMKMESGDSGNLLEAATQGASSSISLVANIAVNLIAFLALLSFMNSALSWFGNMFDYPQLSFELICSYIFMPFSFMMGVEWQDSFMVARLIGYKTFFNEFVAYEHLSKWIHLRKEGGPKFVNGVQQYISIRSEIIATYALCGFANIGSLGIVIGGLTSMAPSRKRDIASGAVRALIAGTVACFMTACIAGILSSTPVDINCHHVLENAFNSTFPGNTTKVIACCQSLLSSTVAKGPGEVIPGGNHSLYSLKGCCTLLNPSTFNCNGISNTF
experimental details: Inhibition of [3H]uridine uptake in hCNT3 transfected MDCK II cells
measurement conditions: 1 μM [3H]uridine, MDCK II cells transiently transfected with hCNT3, 2 min, 37°C; read-out: IC50, inhibition of hCNT3 mediated transport
measured quantity: IC50 (µM)
Numbers only, in µM.

What measured IC50 is associated with "C=C1[C@H](CO)[C@@H](O)C[C@@H]1n1cnc2c(=O)[nH]c(N)nc21" on hCNT3 (Homo sapiens, UniProt Q9HAS3)?
278

###

test target: hOAT1 (Homo sapiens)
experimental details: Inhibition of [3H]PAH uptake in hOAT1 transfected HeLa cells
Type: in vitro ADME
Parameters: host or cells: HeLa cells, transient transfection
measurement conditions: 1 μM [3H]PAH, HeLa cells transiently transfected with hOAT1, 2 min, 37°C; read-out: IC50, inhibition of hOAT1 mediated transport
measured quantity: pIC50
Numbers only, as −log10 of the molar value.

Given C=C1[C@H](CO)[C@@H](O)C[C@@H]1n1cnc2c(=O)[nH]c(N)nc21 [ETV, Entecavir] , state its recorded pIC50.
3.76

###

test target: hOAT1 (Homo sapiens)
experimental details: Inhibition by ETV of [3H]adefovir, [3H]tenofovir, [3H]cidofovir accumulation in hOAT1 transfected HeLa cells
Type: in vitro ADME
Parameters: host or cells: HeLa cells, transient transfection
measurement conditions: [3H]adefovir 0.1 μM, 2 min, read-out: IC50, inhibition of [3H]adefovir accumulation by hOAT1
measured quantity: pIC50
Give bare numbers, as −log10 of the molar value.

Entry C=C1[C@H](CO)[C@@H](O)C[C@@H]1n1cnc2c(=O)[nH]c(N)nc21 [ETV, Entecavir] has what pIC50?
3.37

###

test target: hOAT1 (Homo sapiens, UniProt Q4U2R8)
Sequence (Q4U2R8 whole entry): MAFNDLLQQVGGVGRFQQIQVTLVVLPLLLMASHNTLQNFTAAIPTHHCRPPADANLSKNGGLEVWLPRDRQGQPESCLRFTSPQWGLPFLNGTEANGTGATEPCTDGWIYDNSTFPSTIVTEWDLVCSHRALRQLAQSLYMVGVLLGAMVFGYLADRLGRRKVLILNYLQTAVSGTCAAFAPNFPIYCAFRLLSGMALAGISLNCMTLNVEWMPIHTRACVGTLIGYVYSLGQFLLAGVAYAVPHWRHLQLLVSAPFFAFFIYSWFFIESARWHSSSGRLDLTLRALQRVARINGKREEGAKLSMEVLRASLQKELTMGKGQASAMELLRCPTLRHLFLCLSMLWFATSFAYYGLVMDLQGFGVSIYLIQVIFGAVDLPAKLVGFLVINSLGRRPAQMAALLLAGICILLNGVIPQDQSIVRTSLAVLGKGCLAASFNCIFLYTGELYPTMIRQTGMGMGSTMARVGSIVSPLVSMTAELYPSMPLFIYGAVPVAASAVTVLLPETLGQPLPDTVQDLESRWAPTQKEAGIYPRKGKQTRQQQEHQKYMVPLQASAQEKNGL
experimental details: Inhibition by ETV of [3H]adefovir, [3H]tenofovir, [3H]cidofovir accumulation in hOAT1 transfected HeLa cells
Format: in vitro ADME
Design: host or cells: HeLa cells, transient transfection
measurement conditions: IC50, inhibition of [3H]cidofovir accumulation by hOAT1, [3H]cidofovir 70 μM, 2 min
measured quantity: IC50 (µM)
Give bare numbers, in µM.

// IC50 lookup, key: "C=C1[C@H](CO)[C@@H](O)C[C@@H]1n1cnc2c(=O)[nH]c(N)nc21"
695

###

test target: hOAT1 (Homo sapiens, UniProt Q4U2R8)
experimental details: Inhibition by ETV of [3H]adefovir, [3H]tenofovir, [3H]cidofovir accumulation in hOAT1 transfected HeLa cells
Format: in vitro ADME
Parameters: host or cells: HeLa cells, transient transfection
measurement conditions: [3H]tenofovir 0.5 μM, 2 min, read-out: IC50, inhibition of [3H]tenofovir accumulation by hOAT1
measured quantity: pIC50
Answers are plain numbers, as −log10 of the molar value.

Could you tell me which pIC50 is on file for C=C1[C@H](CO)[C@@H](O)C[C@@H]1n1cnc2c(=O)[nH]c(N)nc21 [ETV, Entecavir] ?
3.15

###

test target: hCNT2 (Homo sapiens, UniProt O43868)
Sequence (O43868 whole entry): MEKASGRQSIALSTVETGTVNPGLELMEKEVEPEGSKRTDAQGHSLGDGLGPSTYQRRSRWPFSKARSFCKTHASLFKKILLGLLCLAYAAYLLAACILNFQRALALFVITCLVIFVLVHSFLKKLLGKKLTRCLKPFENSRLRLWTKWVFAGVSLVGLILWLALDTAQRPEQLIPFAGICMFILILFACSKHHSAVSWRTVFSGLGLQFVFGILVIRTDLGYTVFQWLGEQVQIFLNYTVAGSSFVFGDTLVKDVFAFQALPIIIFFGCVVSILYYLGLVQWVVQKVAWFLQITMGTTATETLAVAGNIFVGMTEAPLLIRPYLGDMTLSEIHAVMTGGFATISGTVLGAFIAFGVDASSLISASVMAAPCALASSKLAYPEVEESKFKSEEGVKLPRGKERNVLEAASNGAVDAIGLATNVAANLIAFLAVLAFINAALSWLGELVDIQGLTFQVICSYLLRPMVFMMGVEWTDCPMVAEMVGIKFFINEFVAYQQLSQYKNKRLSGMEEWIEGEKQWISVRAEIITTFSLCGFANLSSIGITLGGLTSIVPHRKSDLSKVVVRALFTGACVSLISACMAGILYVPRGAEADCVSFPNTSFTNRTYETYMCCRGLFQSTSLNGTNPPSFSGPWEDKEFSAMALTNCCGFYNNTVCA
experimental details: Inhibition of [3H]uridine uptake in hCNT2 transfected MDCK II cells
measurement conditions: 1 μM [3H]uridine, MDCK II cells transiently transfected with hCNT2, 2 min, 37°C; read-out: IC50, inhibition of hCNT2 mediated transport
measured quantity: IC50 (µM)
One number for each entry, in µM.

Notebook: pull reported IC50 for hCNT2 (Homo sapiens, UniProt O43868), entry C=C1[C@H](CO)[C@@H](O)C[C@@H]1n1cnc2c(=O)[nH]c(N)nc21 [ETV, Entecavir]
242
